test system: HCT-116; test: NCI screen antiproliferative activity, colon HCT-116; assay type: cell-based, human; conditions: concentration corresponding to 50% growth inhibition; read-out: cytotoxicity GI50 colon HCT-116
RECORDED_ENDPOINT: GI50

>  <MOLECULE>
O=C1c2cc3c(cc2C2C1c1ccc([N+](=O)[O-])cc1C(=O)N2CCCBr)OCO3 (racemic)

>  <GI50>
< 10 nM

$$$$
>  <MOLECULE>
[N-]=[N+]=NCCCn1c2c(c3ccc([N+](=O)[O-])cc3c1=O)C(=O)c1cc3c(cc1-2)OCO3

>  <GI50>
< 10 nM

$$$$

Field request: GI50 | item: O=C1c2cc3c(cc2C2C1c1ccc([N+](=O)[O-])cc1C(=O)N2CCCCl)OCO3 (racemic)
< 10 nM

* * *

tested on: human cancer cell lines in the National Cancer Institute screen; assay: NCI screen mean graph midpoint over approximately 55 cancer cell lines; type: cell-based; details: average GI50 of all human cancer cell lines tested (approximately 55); test range 10^-8 to 10^-4 molar
RECORDED_ENDPOINT: MGM (mean graph midpoint for growth inhibition) (µM)
Answer with a number only, understood to be in µM.

Examples with answers:
>  <COMPOUND>
O=C1c2ccccc2-c2c1c1ccc([N+](=O)[O-])cc1c(=O)n2CCCBr

>  <TESTED_TARGET>
human cancer cell lines in the National Cancer Institute screen

>  <MEASURED_NUMBER>
40

$$$$
>  <COMPOUND>
CN1C(=O)c2cc([N+](=O)[O-])ccc2C2C(=O)c3cc4c(cc3C21)OCO4 (racemic)

>  <TESTED_TARGET>
human cancer cell lines in the National Cancer Institute screen

>  <MEASURED_NUMBER>
0.105

$$$$
>  <COMPOUND>
Cl.NCCCn1c2c(c3ccc([N+](=O)[O-])cc3c1=O)C(=O)c1ccccc1-2

>  <TESTED_TARGET>
human cancer cell lines in the National Cancer Institute screen

>  <MEASURED_NUMBER>
0.245

$$$$
>  <COMPOUND>
O=C1c2ccccc2-c2c1c1ccc([N+](=O)[O-])cc1c(=O)n2CCCCl

>  <TESTED_TARGET>
human cancer cell lines in the National Cancer Institute screen

>  <MEASURED_NUMBER>
18.2

$$$$

// MGM (mean graph midpoint for growth inhibition) lookup, key: [N-]=[N+]=NCCCn1c2c(c3ccc([N+](=O)[O-])cc3c1=O)C(=O)c1ccccc1-2
13.5

* * *

Here the recorded GI50 is given for each entry.
Test system: DU-145
Assay: NCI screen antiproliferative activity, prostate DU-145
Assay type: cell-based, human
Conditions: concentration corresponding to 50% growth inhibition; read-out: cytotoxicity GI50 prostate DU-145
Procedure: The indenoisoquinolines described herein were examined for antiproliferative activity against the human cancer cell lines in the National Cancer Institute screen, in which the activity of each compound was evaluated with approximately 55 different cancer cell lines of diverse tumor origins. […]

Solved entries (count: 3):
>  <MOLECULE>
O=C1c2cc3c(cc2C2C1c1ccc([N+](=O)[O-])cc1C(=O)N2CCCCl)OCO3 (racemic)

>  <GI50>
< 0.01 µM

$$$$
>  <MOLECULE>
O=C1c2cc3c(cc2C2C1c1ccc([N+](=O)[O-])cc1C(=O)N2CCCBr)OCO3 (racemic)

>  <GI50>
< 0.01 µM

$$$$
>  <MOLECULE>
[N-]=[N+]=NCCCn1c2c(c3ccc([N+](=O)[O-])cc3c1=O)C(=O)c1cc3c(cc1-2)OCO3

>  <GI50>
< 0.01 µM

$$$$

Next up:
Need GI50, item O=C1c2ccccc2-c2c1c1ccc([N+](=O)[O-])cc1c(=O)n2CCCBr
> 100 µM

Sourced from patent US7495100B2
